Collected MIC (μg/mL) S. himastatinicus values appear next to each entry.
Tested on: Streptomyces himastatinicus (ATCC 53653)
Type: cell-based
experimental_conditions: ATCC 53653, 72 h
Numbered stars: 1 amine (or outer) side, 2 acyl side, 3 side chain; on linkers, the order of the positions; unused ones are H or OH. Square brackets hold non-standard residues; d marks the D form. Peptide text beside a SMILES is read from it. X1 = O=C([C@@H]1C[C@@]2(O)c3ccccc3N[C@H]2N1[*:1])[*:2]; X2 = O=C([C@H]1C[C@]2(O)c3ccccc3N[C@@H]2N1[*:1])[*:2]; X3 = O=C([C@@H]1C[C@H](O)CNN1[*:1])[*:2]; dPiz(5R-OH) = O=C(O)[C@H]1C[C@@H](O)CNN1; NMeV = CN[C@H](C(=O)O)C(C)C; dHiv = CC(C)[C@@H](O)C(=O)O

Short answer please: MIC (μg/mL) S. himastatinicus, Streptomyces himastatinicus (ATCC 53653), entry CC(C)C[C@@H]1NC(=O)[C@H]2C[C@@H](O)CNN2C(=O)[C@H](C(C)C)N(C)C(=O)[C@@H](C(C)C)NC(=O)[C@@H]2C[C@@]3(O)c4ccccc4N[C@H]3N2C(=O)[C@@H]([C@H](C)O)NC1=O [(+)-27, N-Methyl Cyclic Hexapeptide] (cyclo(L[dT][X1][dV][NMeV][dPiz(5R-OH)])) >64 µg/mL

Find MIC (μg/mL) S. himastatinicus (Streptomyces himastatinicus (ATCC 53653)) for the entry CC(C)C[C@H]1NC(=O)[C@@H]2C[C@H](O)CNN2C(=O)[C@@H](C(C)C)OC(=O)[C@H](C(C)C)NC(=O)[C@H]2C[C@]3(O)c4ccccc4N[C@@H]3N2C(=O)[C@H]([C@@H](C)O)NC1=O [(−)-6, ent-himastatin monomer] (cyclo([dL]T[X2]V[dHiv][X3])) 8 µg/mL

# returns recorded MIC (μg/mL) S. himastatinicus (system: Streptomyces himastatinicus (ATCC 53653)) for CC(C)C[C@@H]1NC(=O)[C@H]2CCCN2C(=O)[C@H](C(C)C)OC(=O)[C@@H](C(C)C)NC(=O)[C@@H]2C[C@@]3(O)c4cc(-c5ccc6c(c5)[C@]5(O)C[C@H]7C(=O)N[C@H](C(C)C)C(=O)O[C@@H](C(C)C)C(=O)N8CCC[C@@H]8C(=O)N[C@@H](CC(C)C)C(=O)N[C@H]([C@H](C)O)C(=O)N7[C@@H]5N6)ccc4N[C@H]3N2C(=O)[C@@H]([C@H](C)O)NC1=O [(−)-30, Himastatin Proline Derivative] >64 µg/mL
